- Tested on: Vero cells
- EXPERIMENT_NOTES: Cytotoxicity of the compounds for Vero cells (CPE observation, TC50)
- Assay type: cell-based
- ASSAY_CONTEXT: no virus
MEASURED_QUANTITY: TC50 (half toxic concentration for Vero cells)
Output should be the measured figure followed by the unit it is expressed in.

Answered examples (6):
O=C(Nc1nc2ccccc2s1)c1ccc(N(Cc2ccc(F)cc2)C(=O)[C@H]2O[C@@H]2C(=O)Nc2ccc([N+](=O)[O-])cc2)cc1 : 1.43 µg/mL
O=C(Nc1ccc([N+](=O)[O-])cc1)[C@H]1O[C@@H]1C(=O)N(Cc1ccccc1)c1ccccc1 : 4.28 µg/mL
O=C(Nc1nc2ccccc2s1)c1ccc(N(Cc2ccc(F)cc2)C(=O)[C@H]2O[C@@H]2C(=O)Nc2cccc(F)c2)cc1 : 1.43 µg/mL
O=C(Nc1nc2ccccc2s1)c1ccc(N(Cc2ccc(F)cc2)C(=O)[C@H]2O[C@@H]2C(=O)Nc2ccc(F)c(F)c2)cc1 : 1.19 µg/mL
O=C(Nc1nc2ccccc2s1)c1ccc(N(Cc2ccc(F)cc2)C(=O)[C@H]2O[C@@H]2C(=O)Nc2ccccc2Br)cc1 : 0.82 µg/mL
O=C(Nc1nc2ccccc2s1)c1ccc(N(Cc2ccc(F)cc2)C(=O)[C@H]2O[C@@H]2C(=O)Nc2ccc(Cl)cc2Cl)cc1 : 1.43 µg/mL

Exercise: // lookup TC50 (half toxic concentration for Vero cells) for `O=C(Nc1ccc(F)cc1)[C@H]1O[C@@H]1C(=O)N(Cc1ccccc1)c1ccccc1`
Solution: 10.68 µg/mL

Values compiled from patent US9630957B2.
